Listing of recorded pIC50 by entry.
# system_tested: Lck (Homo sapiens, UniProt P06239)
# Construct: Kinases are expressed as either kinase domains or full length constructs; made in house
# assay_details: Kinase inhibition assay (33P transfer), Lck
# Type: biochemical
# condition_details: read-out: Lck-1
pIC50: −log10 of the molar value.

get_value(item= Fc1ccc(Nc2ncnc(Nc3ccc4[nH]ncc4c3)n2)cc1Cl , readout=pIC50) returns 5.17 to 5.95

Measured pIC50 of COc1cc(Nc2ncnc(-n3c(NCc4ccc(O)cc4)nc4ccccc43)n2)cc(OC)c1OC : > 6.10

The molecule listed as CCN(c1cccc(C)c1)c1ncnc(Nc2cc(OC)c(OC)c(OC)c2)n1 has a reported pIC50 of > 6.00

Per the records, this molecule ( CN(c1cccc(Cl)c1)c1ncnc(Nc2cccc(CNC(=O)O[C@@H]3CCOC3)c2)n1 ) has pIC50 equal to 5.28 to 6.06

Lab note: measured pIC50 of Nc1nc2ccccc2n1-c1ncnc(Nc2ccc(OC(F)(F)F)cc2)n1 was < 4.93

response.value for COc1cc(Nc2ncnc(Nc3ccc4nn(Cc5ccccc5)cc4c3)n2)cc(OC)c1OC (field: pIC50) = > 6.08

* * *

# system_tested: Lyn (Homo sapiens, UniProt P07948)
# Sequence (P07948 whole entry, species assumed): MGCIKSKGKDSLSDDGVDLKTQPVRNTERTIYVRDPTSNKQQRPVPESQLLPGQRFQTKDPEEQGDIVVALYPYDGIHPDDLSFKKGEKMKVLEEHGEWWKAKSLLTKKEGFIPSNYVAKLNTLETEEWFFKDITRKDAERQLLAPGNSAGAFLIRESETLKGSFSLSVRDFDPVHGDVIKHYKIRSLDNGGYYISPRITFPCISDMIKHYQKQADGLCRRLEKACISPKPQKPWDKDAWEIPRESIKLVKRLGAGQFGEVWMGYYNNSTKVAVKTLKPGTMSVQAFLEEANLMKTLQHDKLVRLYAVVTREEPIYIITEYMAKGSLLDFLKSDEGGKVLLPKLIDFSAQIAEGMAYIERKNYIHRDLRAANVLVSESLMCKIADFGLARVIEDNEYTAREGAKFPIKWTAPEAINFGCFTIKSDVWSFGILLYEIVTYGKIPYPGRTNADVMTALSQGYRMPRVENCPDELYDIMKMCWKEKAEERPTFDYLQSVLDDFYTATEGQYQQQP
pIC50: −log10 of the molar value.
Reported values of pIC50 for individual entries

Take a look at these entries with their results.
CCN(CC)CCOc1ccc(Nc2ncnc(Nc3cc(OC)c(OC)c(OC)c3)n2)cc1OC :: 5.32 to 6.10
COc1cc(Nc2ncnc(Nc3ccc(Cl)c4ccccc34)n2)cc(OC)c1OC :: 5.26 to 6.04
COc1cc(Nc2ncnc(N(CC(=O)O)c3ccc4c(c3)OCO4)n2)cc(OC)c1OC :: < 5.01
COc1ccc(Nc2ncnc(Nc3cc(-c4ccco4)n[nH]3)n2)cc1OC :: 5.20 to 5.98
COc1cc(Nc2ncnc(-n3c(N)nc4cc(Cl)ccc43)n2)cc(OC)c1OC :: 5.25 to 6.03
COc1cc(Nc2ncnc(Nc3ccc(N(C)C)cc3)n2)cc(OC)c1OC :: 5.22 to 6.00

Please fill in: pIC50 reported for COc1cc(Nc2ncnc(-n3c(NCc4cccs4)nc4ccccc43)n2)cc(OC)c1OC = > 6.09

Quick note, pIC50 for COc1cc(Nc2ncnc(Nc3ccc(C(=O)O)cc3)n2)cc(OC)c1OC landed at < 4.95

Lookup result for COc1cc(Nc2ncnc(-n3c(Nc4ccccc4C)nc4ccccc43)n2)cc(OC)c1OC ; measured pIC50: > 6.08

* * *

# system_tested: PDGFRB (Homo sapiens)
# Construct: Kinases are expressed as either kinase domains or full length constructs; made in house
# Sequence (P09619 33-1106, species assumed): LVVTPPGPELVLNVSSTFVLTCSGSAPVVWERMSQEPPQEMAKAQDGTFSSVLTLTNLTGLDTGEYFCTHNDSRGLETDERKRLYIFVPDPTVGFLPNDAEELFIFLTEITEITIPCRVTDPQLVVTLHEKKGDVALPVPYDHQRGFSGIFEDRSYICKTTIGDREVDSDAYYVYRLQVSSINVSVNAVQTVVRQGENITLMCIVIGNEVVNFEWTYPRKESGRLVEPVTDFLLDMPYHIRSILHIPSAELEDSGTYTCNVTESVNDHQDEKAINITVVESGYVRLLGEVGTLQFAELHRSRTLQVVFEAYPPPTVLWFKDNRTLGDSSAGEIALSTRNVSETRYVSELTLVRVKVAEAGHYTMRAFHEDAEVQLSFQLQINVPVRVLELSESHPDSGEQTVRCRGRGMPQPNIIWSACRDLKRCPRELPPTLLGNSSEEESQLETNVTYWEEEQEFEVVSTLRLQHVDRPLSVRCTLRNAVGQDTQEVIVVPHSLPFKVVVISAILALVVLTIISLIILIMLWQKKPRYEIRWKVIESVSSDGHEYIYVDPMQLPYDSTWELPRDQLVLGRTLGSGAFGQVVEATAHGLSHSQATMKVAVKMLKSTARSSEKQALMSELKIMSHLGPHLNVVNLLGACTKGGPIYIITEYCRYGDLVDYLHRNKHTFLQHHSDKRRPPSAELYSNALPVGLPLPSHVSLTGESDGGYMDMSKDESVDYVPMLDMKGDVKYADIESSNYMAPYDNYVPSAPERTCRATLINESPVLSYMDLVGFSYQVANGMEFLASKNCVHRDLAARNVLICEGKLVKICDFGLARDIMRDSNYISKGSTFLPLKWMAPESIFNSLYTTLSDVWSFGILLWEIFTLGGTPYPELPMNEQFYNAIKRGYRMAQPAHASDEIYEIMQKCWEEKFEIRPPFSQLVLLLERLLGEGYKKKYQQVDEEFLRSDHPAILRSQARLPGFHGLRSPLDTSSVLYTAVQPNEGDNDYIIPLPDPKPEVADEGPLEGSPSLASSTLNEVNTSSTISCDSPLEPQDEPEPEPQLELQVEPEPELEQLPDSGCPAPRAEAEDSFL
# assay_details: Kinase inhibition assay (33P transfer), PDGFRB
# Type: biochemical
# condition_details: read-out: PDGFRB-1
value_type: IC50

COc1cc(Br)ccc1Nc1nc2ccccc2n1-c1ncnc(Nc2cc(OC)c(OC)c(OC)c2)n1 :: 4.15 to 6.05 µM
NC(=O)Cc1cccc(Nc2ncnc(-n3c(N)nc4ccccc43)n2)c1 :: 1.11 to 6.66 µM
COc1cc(Nc2ncnc(NCCc3ccccc3)n2)cc(OC)c1OC :: 1.05 to 6.29 µM
COc1cc(Nc2ncnc(Nc3cc(-c4ccc(C(=O)N(C)C)cc4)n[nH]3)n2)cc(OC)c1OC :: 0.815 to 4.89 µM

// IC50 lookup, compound = Cc1cccc(Nc2ncnc(Nc3ccc4c(cnn4Cc4ccccc4)c3)n2)c1 , result: 0.982 to 5.89 µM

In plain terms, CN(c1cccc(Cl)c1)c1ncnc(Nc2ccc(F)c(C(F)(F)F)c2)n1 has a documented IC50 of > 11.3 µM

CC(=O)c1ccc(Nc2ncnc(Nc3ccc4c(cnn4Cc4ccccc4)c3)n2)cc1 yielded IC50 of 0.919 to 5.51 µM

Looking up O=C(O)Cc1cccc(Nc2ncnc(-c3cccnc3NCc3ccc(F)cc3)n2)c1 , I see its IC50 listed as < 0.929 µM

IC50 in this record for COc1ccc(Nc2ncnc(Nc3cccc(-c4ccnc(C)n4)c3)n2)cc1OC : 5.78 to 8.42 µM

// field: IC50; key: FC(F)(F)Oc1ccc(Nc2ncnc(Nc3ccc4c(cnn4Cc4ccccc4)c3)n2)cc1 ; value = > 9.43 µM

// sample c1ccc(Cn2ncc3cc(Nc4ncnc(Nc5ncccn5)n4)ccc32)cc1 , its IC50 was > 11.4 µM

Memo: COc1cc(Nc2ncnc(-c3cccnc3NC3CCc4ccccc43)n2)cc(OC)c1OC (stereo not drawn) , reported IC50: 0.85 to 5.1 µM

For this compound ( COc1cc(Nc2ncnc(-n3c(Nc4cccc(F)c4)nc4ccccc43)n2)cc(OC)c1OC ), measured IC50 is < 0.821 µM

Reported IC50 ( COC(=O)c1ccc(-c2cc(Nc3ncnc(Nc4cccc(C(N)=O)c4)n3)[nH]n2)cc1 ) = > 10.5 µM

Lab book: IC50 of COc1cc(Nc2ncnc(-n3c(NC4c5ccccc5CC4O)nc4ccccc43)n2)cc(OC)c1OC (stereo not drawn) noted as > 8.56 µM

* * *

# system_tested: EGFR (Homo sapiens, UniProt P00533)
# Construct: Kinases are expressed as either kinase domains or full length constructs; made in house
# Sequence (P00533 25-1210, species assumed): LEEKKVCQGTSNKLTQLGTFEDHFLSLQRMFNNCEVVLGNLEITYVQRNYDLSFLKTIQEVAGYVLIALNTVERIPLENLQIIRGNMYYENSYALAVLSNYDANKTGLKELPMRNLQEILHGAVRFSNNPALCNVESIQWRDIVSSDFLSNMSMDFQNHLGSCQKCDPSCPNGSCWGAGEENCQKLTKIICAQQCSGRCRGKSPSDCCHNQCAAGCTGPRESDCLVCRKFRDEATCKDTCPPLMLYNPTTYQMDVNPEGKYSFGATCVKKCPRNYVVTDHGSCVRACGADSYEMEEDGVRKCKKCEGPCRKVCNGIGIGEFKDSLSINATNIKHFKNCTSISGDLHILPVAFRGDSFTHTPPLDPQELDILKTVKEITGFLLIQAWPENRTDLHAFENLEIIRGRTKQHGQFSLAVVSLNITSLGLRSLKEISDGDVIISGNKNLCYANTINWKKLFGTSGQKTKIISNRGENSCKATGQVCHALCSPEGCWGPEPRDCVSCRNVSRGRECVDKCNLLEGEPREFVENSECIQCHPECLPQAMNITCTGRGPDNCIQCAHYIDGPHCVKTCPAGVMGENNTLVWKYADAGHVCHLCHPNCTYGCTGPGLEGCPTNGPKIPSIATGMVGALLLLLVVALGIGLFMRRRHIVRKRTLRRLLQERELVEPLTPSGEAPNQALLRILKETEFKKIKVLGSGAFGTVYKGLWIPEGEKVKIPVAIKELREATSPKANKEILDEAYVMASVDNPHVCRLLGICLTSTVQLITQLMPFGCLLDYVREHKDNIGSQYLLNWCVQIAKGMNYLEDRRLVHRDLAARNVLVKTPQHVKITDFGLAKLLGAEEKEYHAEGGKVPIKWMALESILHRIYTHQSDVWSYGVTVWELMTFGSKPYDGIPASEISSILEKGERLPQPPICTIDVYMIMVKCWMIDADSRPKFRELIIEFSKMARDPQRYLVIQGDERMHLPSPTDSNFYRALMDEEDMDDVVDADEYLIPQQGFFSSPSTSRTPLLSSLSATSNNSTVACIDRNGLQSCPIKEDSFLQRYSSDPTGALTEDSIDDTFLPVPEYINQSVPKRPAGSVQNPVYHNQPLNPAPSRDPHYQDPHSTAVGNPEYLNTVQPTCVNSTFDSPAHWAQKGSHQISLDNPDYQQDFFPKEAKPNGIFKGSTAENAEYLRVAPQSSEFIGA
# assay_details: Kinase inhibition assay (33P transfer), EGFR
# Format: biochemical
# condition_details: Table 2, kinase inhibition class; read-out: EGFR-1
value_type: IC50

Value of IC50 reported for the compound NS(=O)(=O)c1ccc(Nc2ncnc(-n3c(=O)[nH]c4ccccc43)n2)cc1 is > 11.7 µM

According to the records, this compound NC(=O)c1ccc(Nc2ncnc(-c3cccs3)n2)cc1 displays IC50 of > 15.1 µM

Reported IC50 of CC(C)(C)OC(=O)Nc1ccc(Nc2ncnc(Nc3ccc(OCc4ccccc4)cc3)n2)cc1 : > 9.29 µM

Please fill in: IC50 reported for COc1ccc(CNc2nc3ccccc3n2-c2ncnc(Nc3cc(OC)c(OC)c(OC)c3)n2)cc1OC = 4.42 to 6.44 µM

Value of IC50 reported for the compound COc1ccc(Nc2ncnc(Nc3ccc(Br)cc3F)n2)cc1OC is 5.71 to 8.33 µM

The reported value for Fc1ccc(Nc2ncnc(-n3cccc3)n2)cc1 in terms of IC50 is > 17.6 µM

Looking up COc1ccc(Nc2ncnc(NCCC#N)n2)cc1OC , I see its IC50 listed as > 15 µM

The compound listed as Cc1ccc2c(c1)CCCN2c1ncnc(NCCc2c[nH]c3ccccc23)n1 has a reported IC50 of > 11.7 µM

Lab book: IC50 of CC(C)(C)c1cc(Nc2ncnc(Nc3cccc(C(N)=O)c3)n2)[nH]n1 noted as 1.14 to 6.81 µM

Entry COc1cc(Nc2ncnc(Nc3ccc(NC(=O)OC(C)(C)C)cc3)n2)cc(OC)c1OC ; IC50 = > 9.6 µM

* * *

# system_tested: Zap-70 (Homo sapiens)
# Construct: Kinases are expressed as either kinase domains or full length constructs; made in house
# Sequence (P43403 whole entry, species assumed, the tested form may be a part): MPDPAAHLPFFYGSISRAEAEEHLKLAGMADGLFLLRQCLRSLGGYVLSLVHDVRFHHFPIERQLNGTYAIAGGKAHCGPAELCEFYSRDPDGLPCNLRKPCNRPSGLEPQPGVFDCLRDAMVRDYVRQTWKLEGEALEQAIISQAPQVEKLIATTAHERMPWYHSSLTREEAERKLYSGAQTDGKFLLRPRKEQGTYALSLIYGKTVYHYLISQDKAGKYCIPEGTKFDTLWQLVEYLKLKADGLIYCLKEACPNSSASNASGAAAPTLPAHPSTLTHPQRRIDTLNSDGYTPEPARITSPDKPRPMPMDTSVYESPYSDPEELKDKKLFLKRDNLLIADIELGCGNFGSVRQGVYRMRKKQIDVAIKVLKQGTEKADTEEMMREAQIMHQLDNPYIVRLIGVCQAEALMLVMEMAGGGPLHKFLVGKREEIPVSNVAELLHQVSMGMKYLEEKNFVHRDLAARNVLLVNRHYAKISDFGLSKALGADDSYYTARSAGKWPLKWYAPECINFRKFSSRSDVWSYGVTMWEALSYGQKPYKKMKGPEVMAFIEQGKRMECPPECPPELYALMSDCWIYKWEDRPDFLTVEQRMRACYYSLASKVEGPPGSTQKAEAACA
# assay_details: Kinase inhibition assay (33P transfer), Zap-70
# Format: biochemical
# condition_details: Table 3; read-out: Zap-1
# Text: The inhibitor compounds described herein are screened in the following manner. […] Kinases are expressed as either kinase domains or full length constructs fused to glutathione S-transferase (GST) or polyHistidine tagged fusion proteins in either E. colior Baculovirus-High Five expression systems. […]
pIC50: −log10 of the molar value.
value_type: pIC50

For orientation, consider the following solved cases.
COc1cc(Nc2ncnc(Nc3cc(C)ccc3C)n2)cc(OC)c1OC :: < 4.93
COc1cc(Nc2ncnc(-n3c(NCc4cccnc4)nc4ccccc43)n2)cc(OC)c1OC :: < 5.03
COc1cc(Nc2ncnc(Nc3cccc(C(=O)O)c3)n2)cc(OC)c1OC :: < 4.95
O=c1[nH]c2ccccc2n1-c1ncnc(Nc2ccc(OC(F)(F)F)cc2)n1 :: 5.05 to 5.21
COc1cc(Nc2ncnc(-n3c(Nc4ccc(Cl)cc4)nc4ccccc43)n2)cc(OC)c1OC :: < 5.05

Short answer for Nc1nc2ccccc2n1-c1ncnc(Cl)n1 : pIC50 was 4.85 to 5.01

What the record says about COc1cc(Nc2ncnc(Nc3cc(-c4ccco4)n[nH]3)n2)cc(OC)c1 : pIC50 is 5.20 to 5.98

Briefly, pIC50 measured for COc1cc(Nc2ncnc(Nc3cc(-c4ccc(Cl)cc4)n[nH]3)n2)cc(OC)c1OC : < 5.00

* * *

# system_tested: Kdr (Homo sapiens, UniProt P35968)
# Construct: Kinases are expressed as either kinase domains or full length constructs; made in house
# Sequence (P35968 20-1356, species assumed): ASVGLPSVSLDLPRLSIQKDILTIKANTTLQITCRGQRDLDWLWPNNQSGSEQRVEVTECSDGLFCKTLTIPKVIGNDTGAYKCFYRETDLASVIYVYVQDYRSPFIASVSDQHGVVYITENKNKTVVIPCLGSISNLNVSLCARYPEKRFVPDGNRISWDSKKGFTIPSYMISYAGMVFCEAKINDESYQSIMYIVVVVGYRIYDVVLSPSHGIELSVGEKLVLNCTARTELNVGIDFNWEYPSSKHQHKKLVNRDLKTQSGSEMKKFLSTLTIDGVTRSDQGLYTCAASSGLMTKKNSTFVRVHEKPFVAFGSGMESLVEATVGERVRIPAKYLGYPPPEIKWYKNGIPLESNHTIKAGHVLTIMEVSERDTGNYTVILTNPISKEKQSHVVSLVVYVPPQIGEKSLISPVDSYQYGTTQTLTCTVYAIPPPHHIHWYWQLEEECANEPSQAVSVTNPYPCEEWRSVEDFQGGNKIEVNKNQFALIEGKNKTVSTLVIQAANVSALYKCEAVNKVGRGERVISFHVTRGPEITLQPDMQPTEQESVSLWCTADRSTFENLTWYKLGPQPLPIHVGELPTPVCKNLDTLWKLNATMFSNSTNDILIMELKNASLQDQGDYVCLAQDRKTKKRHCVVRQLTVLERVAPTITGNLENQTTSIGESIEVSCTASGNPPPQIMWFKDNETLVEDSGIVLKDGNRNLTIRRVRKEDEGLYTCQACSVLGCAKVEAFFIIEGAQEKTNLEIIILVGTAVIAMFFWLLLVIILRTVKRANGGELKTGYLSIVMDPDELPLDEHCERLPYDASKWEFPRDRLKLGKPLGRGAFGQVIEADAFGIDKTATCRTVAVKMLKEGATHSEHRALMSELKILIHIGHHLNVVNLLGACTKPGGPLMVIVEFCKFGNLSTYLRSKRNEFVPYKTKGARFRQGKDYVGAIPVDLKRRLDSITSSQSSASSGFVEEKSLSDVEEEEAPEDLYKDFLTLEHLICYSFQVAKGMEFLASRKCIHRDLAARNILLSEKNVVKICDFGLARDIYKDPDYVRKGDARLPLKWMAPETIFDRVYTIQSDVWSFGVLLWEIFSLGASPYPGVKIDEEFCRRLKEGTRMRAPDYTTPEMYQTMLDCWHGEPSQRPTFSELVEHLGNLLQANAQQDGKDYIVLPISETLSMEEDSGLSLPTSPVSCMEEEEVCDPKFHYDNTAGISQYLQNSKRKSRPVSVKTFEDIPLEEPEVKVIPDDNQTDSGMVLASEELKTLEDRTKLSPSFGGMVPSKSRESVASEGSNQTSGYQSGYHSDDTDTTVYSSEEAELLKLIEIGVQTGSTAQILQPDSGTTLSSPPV
# assay_details: Kinase inhibition assay (33P transfer), Kdr
# Type: biochemical
# condition_details: Table 3; read-out: KDR-1
# Source text: The inhibitor compounds described herein are screened in the following manner. […] Kinases are expressed as either kinase domains or full length constructs fused to glutathione S-transferase (GST) or polyHistidine tagged fusion proteins in either E. colior Baculovirus-High Five expression systems. […]
pIC50: −log10 of the molar value.
value_type: pIC50

Reference set, count: 2
COc1cc(Nc2ncnc(Nc3cc(-c4ccc(Cl)cc4)n[nH]3)n2)cc(OC)c1OC :: > 6.05
Nc1ncnc(Nc2ccc3c(c2)OCO3)n1 :: 4.82 to 4.98

The compound listed as COc1cc(Nc2ncnc(Nc3ccccn3)n2)cc(OC)c1OC has a reported pIC50 of < 4.90

Input COc1cc(Nc2ncnc(-n3c(NC(C)=O)nc4ccccc43)n2)cc(OC)c1OC . Output pIC50: 5.26 to 6.04

The value of pIC50 measured for the compound Cc1cccc(Nc2ncnc(Nc3cccc(Br)c3)n2)c1 turned out to be 5.01 to 5.17

Reported pIC50 for Cc1ccc(Nc2ncnc(N)n2)cc1 was < 4.65

Looking up ClCc1ccccc1Nc1ncnc(-n2cccc2)n1 , I found its pIC50 recorded as < 4.80
